Test system: Escherichia coli TOP10;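 note: peptides expressed intracellularly from a pBAD plasmid library in pooled LB shake-flask culture, induced with 0.3% L-arabinose, DNA abundance read by NGS, three biological replicates, DESeq2 with apeglm shrinkage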
Test: shrunken log2 fold change of peptide-encoding DNA abundance (4.5 h post-induction vs induction); higher = less antimicrobial activity (less host growth inhibition)
Conditions: time post-induction: 4.5 h; library: site-saturation at positions 5, 18, 19, 20
# if value of shrunken log2 fold change reaches 0.07, tag yes; if it stays below, tag no

For orientation, consider the following solved cases.
seq_text=RRIRSRPPRLPRPRPRPRGPPRP label=yes
seq_text=RRIRYRPPRLPRPRPRPHHYPRP label=no
seq_text=RRIRLRPPRLPRPRPRPVTYPRP label=no
seq_text=RRIRSRPPRLPRPRPRPITWPRP label=no
seq_text=RRIRQRPPRLPRPRPRPVIMPRP label=no

In: Decide: shrunken log2 fold change of RRIRMRPPRLPRPRPRPCWAPRP >= 0.07?
Out: yes

In: Decide: shrunken log2 fold change of RRIRMRPPRLPRPRPRPVSGPRP >= 0.07?
Out: yes

In: Decide: shrunken log2 fold change of RRIRHRPPRLPRPRPRPNSLPRP >= 0.07?
Out: no

In: Decide: shrunken log2 fold change of RRIRFRPPRLPRPRPRPMMGPRP >= 0.07?
Out: no

In: Decide: shrunken log2 fold change of RRIRRRPPRLPRPRPRPCTIPRP >= 0.07?
Out: no
